Measured target: cloned human μ-opioid receptors (Homo sapiens, UniProt P35372)
Sequence (P35372 whole entry): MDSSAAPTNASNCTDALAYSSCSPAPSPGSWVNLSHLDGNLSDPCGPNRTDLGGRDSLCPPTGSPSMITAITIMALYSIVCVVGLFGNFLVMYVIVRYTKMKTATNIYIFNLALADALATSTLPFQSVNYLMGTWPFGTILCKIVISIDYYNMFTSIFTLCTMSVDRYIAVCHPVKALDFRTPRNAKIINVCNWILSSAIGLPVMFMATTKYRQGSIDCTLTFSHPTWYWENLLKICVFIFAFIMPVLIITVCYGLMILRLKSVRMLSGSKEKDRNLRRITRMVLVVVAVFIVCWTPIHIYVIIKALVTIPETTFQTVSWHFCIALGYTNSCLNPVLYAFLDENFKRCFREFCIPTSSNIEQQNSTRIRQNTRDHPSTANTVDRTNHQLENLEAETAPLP
Endpoint name: Ki (nM)
Just the number please, in nM, no unit attached.

Exercise: Indicate the recorded Ki value for this compound: COc1cc(CNCCC2CCOCC2)ccc1Oc1cnc(C(N)=O)cn1 [Compound I]
Key: 0.36

====

Experimental details: Plasma protein binding (human)
Assay type: in vitro ADME
Condition description: read-out: Plasma protein binding (% free drug)
Can you tell me fraction unbound for the items I'm about to list?
A bare number is all that is needed in reply.

Exercise: Indicate the recorded fraction unbound value for this molecule: COc1cc(CNCCC2CCOCC2)ccc1Oc1cnc(C(N)=O)cn1 [Compound I]
Key: 0.738

Exercise: Indicate the recorded fraction unbound value for this molecule: C[C@H]1CN(C[C@H](Cc2ccccc2)C(=O)NCC(=O)O)CC[C@@]1(C)c1cccc(O)c1 [Alvimopan, alvimopan]
Key: 0.203

====

Experimental details: Oral bioavailability in cynomologus monkey
Condition description: in vivo, 0.1 mg/kg to 0.5 mg/kg
Endpoint name: bioavailability

Exercise: Indicate the recorded bioavailability value for this molecule: COc1cc(CNCCC2CCOCC2)ccc1Oc1cnc(C(N)=O)cn1
Key: ~100%

====

Experimental details: Plasma protein binding (mouse)
Assay type: in vitro ADME
Condition description: read-out: Plasma protein binding (% free drug)
Endpoint name: fraction unbound
A bare number is all that is needed in reply.

Exercise: Indicate the recorded fraction unbound value for this molecule: COc1cc(CNCCC2CCOCC2)ccc1Oc1cnc(C(N)=O)cn1
Key: 0.64

====

Experimental details: Phase 1 oral pharmacokinetics of Compound I in healthy subjects
Assay type: in vivo, human
Condition description: human, plasma, oral; humans, doses of 1-3 mg
Endpoint name: half-life

Exercise: Indicate the recorded half-life value for this compound: COc1cc(CNCCC2CCOCC2)ccc1Oc1cnc(C(N)=O)cn1
Key: ~12 h
